MEASURED TARGET: T1, purified recombinant ADIPOR1 (A88) (UniProt Q96A54 89-375)
T1 construct: range 89-375; Expressed in SF9 cells by baculovirus, solubilised in DDM, purified on anti-Flag beads (eluted with Flag peptide) and by size exclusion as monomer; amine-coupled to a CM5 chip; also called adiponectin receptor 1; adiponectin receptor ADIPOR1; not shown: Flag tag at the N-terminus
T1 sequence: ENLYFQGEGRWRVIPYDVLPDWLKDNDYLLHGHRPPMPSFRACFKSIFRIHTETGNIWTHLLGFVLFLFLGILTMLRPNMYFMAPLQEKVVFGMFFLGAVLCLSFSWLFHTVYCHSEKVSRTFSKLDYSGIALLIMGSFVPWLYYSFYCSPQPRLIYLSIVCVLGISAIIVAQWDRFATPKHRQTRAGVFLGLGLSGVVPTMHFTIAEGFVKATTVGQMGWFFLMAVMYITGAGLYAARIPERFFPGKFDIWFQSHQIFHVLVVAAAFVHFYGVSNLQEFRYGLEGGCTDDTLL
PROTOCOL DETAILS: SPR, ADIPOR1 amine-coupled to CM5 chip, peptide injected
Experimental: In order to analyze the binding force between peptide and ADIPOR1, a purified recombinant ADIPOR1 (A88) was bound to a CM5 chip with 3000 RU or higher through amine coupling. […] The affinity value was calculated using the affinity fitting or kinetics fitting method. […] The peptide concentrations were calculated by measuring the […] and A280 absorbance of each peptide. […]
PROPERTY MEASURED: Kd

YYFAYHPNIPGLYYF (Synthetic 3rd round agonist peptide designed for the adiponectin receptor) [peptide 3-1]
≤ 16 µM
FYFAYHPNIPGLFYF (Synthetic 4th round agonist peptide) [peptide 4-4]
2 to 4.3 µM

Next item in the queue.
# Kd lookup, item WYFAYHPNIPGLWYF (Synthetic 4th round agonist peptide) [peptide 4-3]
6 to 10 µM
